- TESTED_SYSTEM: human cyclophilin B (Homo sapiens)
- ASSAY_TEXT: PPIase test: inhibition of human cyclophilin B (Suc-Ala-Ala-Pro-Phe-Nan, chymotrypsin)
- Type: biochemical
- SETUP_CONDITIONS: Compound [10 μmol]; preincubated 15 minutes at 4° C. with 10 nmol Cyp B
inhibition at 10 µM overview
Respond with the bare value in %.

Record excerpt, results attached:
COCCNC(=O)[C@@H]1Cc2ccccc2N1C(=O)[C@@H]1CCCN1S(=O)(=O)c1ccc(N)cc1 ... 40
COC(=O)[C@H](CCCCNC(=O)OCc1ccccc1)NC(=O)[C@@H]1Cc2ccccc2N1S(=O)(=O)c1ccc(NC(C)=O)cc1 ... 60
COCCNC(=O)[C@@H]1Cc2ccccc2N1C(=O)[C@@H]1Cc2ccccc2N1S(=O)(=O)c1ccc2ccccc2c1 ... 20

Query: Item "COCCNC(=O)[C@@H]1Cc2ccccc2N1C(=O)[C@H]1Cc2ccccc2N1S(=O)(=O)c1ccc(NC(C)=O)cc1" has what recorded inhibition at 10 µM?
Response: 40

Query: For the compound "Cc1ccc(S(=O)(=O)N2c3ccccc3C[C@H]2C(=O)N2c3ccccc3C[C@H]2C(=O)NCCN2CCOCC2)cc1" , what inhibition at 10 µM is on record?
Response: 40

Query: Given the entry COC(=O)[C@H]1Cc2ccccc2N1C(=O)[C@H]1Cc2ccccc2N1S(=O)(=O)c1ccc(NC(C)=O)cc1 (racemic) , report its measured inhibition at 10 µM.
Response: 30

----------
List of inhibition at 10 µM values.
- TESTED_SYSTEM: human cyclophilin B (Homo sapiens)
- ASSAY_TEXT: PPIase test: inhibition of human cyclophilin B (Suc-Ala-Ala-Pro-Phe-Nan, chymotrypsin)
- Assay type: biochemical
- SETUP_CONDITIONS: Compound [10 μmol]; preincubated 15 minutes at 4° C. with 10 nmol Cyp B
# output: bare number, implied unit %

Some molecules with recorded inhibition at 10 µM:
Cc1ccc(S(=O)(=O)N2c3ccccc3C[C@H]2C(=O)N2c3ccccc3C[C@H]2C(=O)Nc2ccncc2)cc1 ... 40
COCCNC(=O)[C@H]1Cc2ccccc2N1C(=O)[C@@H]1Cc2ccccc2N1S(=O)(=O)c1ccc(NC(C)=O)cc1 ... 40
COCCNC(=O)[C@@H]1Cc2ccccc2N1C(=O)[C@@H]1Cc2ccccc2N1S(=O)(=O)c1ccc(N)cc1 ... 40
COCCNC(=O)[C@H]1Cc2ccccc2N1C(=O)[C@H]1Cc2ccccc2N1S(=O)(=O)c1ccc(NC(C)=O)cc1 ... 60
COCCNC(=O)[C@@H]1Cc2ccccc2N1C(=O)[C@@H]1Cc2ccccc2N1S(=O)(=O)c1cccc2ccccc12 ... 20

Query: Reported inhibition at 10 µM for human cyclophilin B (Homo sapiens), given "Cc1ccc(S(=O)(=O)N2c3ccccc3C[C@H]2C(=O)N2c3ccccc3C[C@H]2C(=O)NCCc2ccccn2)cc1" ?
Response: 40

Query: // fetch human cyclophilin B (Homo sapiens) inhibition at 10 µM for "COCCNC(=O)[C@@H]1Cc2ccccc2N1C(=O)[C@@H]1Cc2ccccc2N1S(=O)(=O)c1ccc(NC(C)=O)cc1"
Response: 40

----------
- TESTED_SYSTEM: human cyclophilin B (Homo sapiens, UniProt P23284)
- Sequence (P23284 34-216): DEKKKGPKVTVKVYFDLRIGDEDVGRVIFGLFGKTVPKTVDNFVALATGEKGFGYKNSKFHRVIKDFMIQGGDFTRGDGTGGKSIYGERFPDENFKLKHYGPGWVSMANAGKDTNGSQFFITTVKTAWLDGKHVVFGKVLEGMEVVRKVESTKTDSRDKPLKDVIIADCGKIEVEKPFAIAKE
- ASSAY_TEXT: PPIase test: inhibition of human cyclophilin B (Suc-Ala-Ala-Pro-Phe-Nan, chymotrypsin)
- Format: biochemical
- SETUP_CONDITIONS: Compound [10 μmol]; preincubated 15 minutes at 4° C. with 10 nmol Cyp B
- Procedure: The compounds of Formula I of the present invention are distinguished by immunophilin binding and inhibit isomerase activity. This prolyl isomerase activity is tested according to a conventional, well known enzyme test described in G. Fischer, H. Bang. […] The compounds of Formula I of the present invention are distinguished by immunophilin binding and inhibit its peptidyl-prolyl cis-trans isomerase (PPlase) activity. […] This PPlase activity is determined by the aforementioned well known enzyme test. […]
As shown below, each of these compounds has a reported inhibition at 10 µM value.

Cc1ccc(S(=O)(=O)N2c3ccccc3C[C@H]2C(=O)N2c3ccccc3C[C@H]2C(=O)NCCCn2ccnc2)cc1 ... 20 to 40%
CC(=O)Nc1ccc(S(=O)(=O)N2c3ccccc3C[C@@H]2C(=O)O)cc1 ... 0 to 20%

Query: # get_value(readout='inhibition at 10 µM', item= "COCCNC(=O)[C@@H]1Cc2ccccc2N1S(=O)(=O)c1cccc2cccnc12" )
Response: 20 to 40%

Query: Which inhibition at 10 µM reading was recorded for the compound CC(=O)Nc1ccc(S(=O)(=O)N2c3ccccc3C[C@@H]2C(=O)N2c3ccccc3C[C@@H]2C(=O)O)cc1 (racemic) ?
Response: 0 to 20%

Query: What value of inhibition at 10 µM has been recorded for this entry: COCCNC(=O)C1Cc2ccccc2N1C(=O)C1Cc2ccccc2N1S(=O)(=O)c1ccc(NC(C)=O)cc1 (racemic)
Response: 20 to 40%

Query: Look at this compound and give its reported inhibition at 10 µM. "COC(=O)[C@H]1Cc2ccccc2N1S(=O)(=O)c1ccc(NC(C)=O)cc1"
Response: 0 to 20%
